Numbers sourced from patent US20250092056A1.

system: SARS-CoV-2; assay: Cytopathic effect (CPE) suppression effect confirmation test using HEK293T/ACE2-TMPRSS2 cells; type: cell-based; conditions: Severe acute respiratory syndrome coronavirus 2, HEK-293T, 72 h, read-out: EC50 (50% SARS-CoV-2 infected cell death inhibitory concentration), class, HEK293T/ACE2-TMPRSS2 cells, CPE suppression, CellTiter-Glo 2.0 after 3 days culture
RECORDED_METRIC: EC50

Examples with their reported EC50 follow.
Cc1cncc(-n2c(=O)c(Cc3cc(F)c(F)c(F)c3)c(N3CCC(CO)CC3)n(CC#N)c2=O)c1    < 100 nM
Cc1cncc(-n2c(=O)c(-c3ccc(F)c(Cl)c3)c(-c3ccc(C(=O)OC(C)(C)C)cc3)n(CC#N)c2=O)c1    100 to 1000 nM
N#CCn1c(N2CC3(CCOC3)C2)c(Cc2cc(F)c(F)c(F)c2)c(=O)n(-c2cnc3cnccn23)c1=O    1000 to 5000 nM
Cc1cncc(-n2c(=O)c(-c3ccc(F)c(Cl)c3)c(N3Cc4cn[nH]c4C3)n(CC#N)c2=O)c1    < 100 nM
N#CCn1c(N2C[C@H]3C[C@@H]2CN3)c(-c2ccc(F)c(Cl)c2)c(=O)n(-c2cncc(Cl)c2)c1=O    100 to 1000 nM

What EC50 value was documented for this compound, `CC1(C)[C@@H]2CN(c3c(-c4cccc(Cl)c4)c(=O)n(-c4cncc(Cl)c4)c(=O)n3CC#N)C[C@@H]21` ?
< 100 nM

What EC50 value was documented for this compound, `N#CCn1c(N2CC3(C2)CC(F)(F)C3)c(-c2ccc(F)c(Cl)c2)c(=O)n(-c2cnc3cc(Cl)ccn23)c1=O` ?
< 100 nM

What EC50 value was documented for this compound, `Cc1cc(-n2c(=O)c(-c3ccc(F)c(Cl)c3)c(N3CC4(CCOCC4)C3)n(CC#N)c2=O)cc(=O)[nH]1` ?
1000 to 5000 nM

What EC50 value was documented for this compound, `Cc1cncc(-n2c(=O)c(Cc3cc(F)c(F)c(F)c3)c(N3CCC4(CCOCC4)C3)n(CC#N)c2=O)c1` ?
< 100 nM

What EC50 value was documented for this compound, `Cn1cnc(Cn2c(=O)c(Cc3cc(F)c(F)c(F)c3)c(-c3cc4ccccc4s3)n(CC#N)c2=O)n1` ?
100 to 1000 nM

What EC50 value was documented for this compound, `N#CCn1c(N2CC3(CC3)C2)c(-c2ccc(F)c(Cl)c2)c(=O)n(-c2cncc(Cl)c2)c1=O` ?
< 100 nM

What EC50 value was documented for this compound, `Cc1cc(-n2c(=O)c(-c3ccc(F)c(Cl)c3)c(-c3nc4ccccc4s3)n(CC#N)c2=O)cc(=O)[nH]1` ?
< 100 nM

What EC50 value was documented for this compound, `N#CCn1c(N2CC(c3nccs3)C2)c(-c2ccc(F)c(Cl)c2)c(=O)n(-c2cncc(Cl)c2)c1=O` ?
< 100 nM

What EC50 value was documented for this compound, `Cn1cnc(Cn2c(=O)c(-c3cccc(Cl)c3)c(N3Cc4ccccc4C3)n(CC#N)c2=O)n1` ?
1000 to 5000 nM

---

target: Recombinant SARS-CoV-2 3CL Protease (Severe acute respiratory syndrome coronavirus 2 (2019-nCoV) (SARS-CoV-2), UniProt P0DTD1); test: biochemical; format: biochemical; details: 50% SARS-CoV-2 3CL protease inhibitory concentration; read-out: IC50
Examples of molecules with documented IC50 follow.

What IC50 value was documented for this molecule, Cc1cncc(N2C(=O)N(CC#N)CC3(CCOc4ccc(Cl)cc43)C2=O)c1 (racemic) ?
71 nM

---

Examples of compounds with documented pIC50 follow.
target: Recombinant SARS-CoV-2 3CL Protease (Severe acute respiratory syndrome coronavirus 2 (2019-nCoV) (SARS-CoV-2)); assay: biochemical; type: biochemical; conditions: 50% SARS-CoV-2 3CL protease inhibitory concentration; read-out: IC50
pIC50: −log10 of the molar value.

Examples with their reported pIC50 follow.
N#CCn1c(N2CC3(CCOC3)C2)c(C2=CCCCCC2)c(=O)n(-c2cncc(Cl)c2)c1=O    > 8.00
CC(C)NC(=O)c1c(-c2ccc(F)c(Cl)c2)c(=O)n(-c2cncc(Cl)c2)c(=O)n1CC#N    < 7.00
N#CCn1c(N2CC3(CCCO3)C2)c(-c2ccc(F)c(Cl)c2)c(=O)n(-c2cnc3cc(F)ccn23)c1=O    > 8.00
Cc1cncc(-n2c(=O)c(Cc3cc(F)c(F)c(F)c3)c(N3CC[C@@H](C(N)=O)C3)n(CC#N)c2=O)c1    > 8.00
COCC1CN(c2c(-c3ccc(F)c(Cl)c3)c(=O)n(-c3cncc(C(F)F)n3)c(=O)n2CC#N)C1    > 8.00
N#CCn1c(C2=CCC2)c(-c2ccc(F)c(Cl)c2)c(=O)n(-c2cncc(Cl)c2)c1=O    7.00 to 8.00

What pIC50 value was documented for this compound, `N#CCn1c(N2CC3(C2)CC(F)(F)C3)c(-c2ccc(F)c(Cl)c2)c(=O)n(-c2cncc(OC(F)F)n2)c1=O` ?
> 8.00

What pIC50 value was documented for this compound, `Cc1cc(-n2c(=O)c(-c3ccc(F)c(Cl)c3)c(N3CC4(C3)CC(F)(F)C4)n(CC#N)c2=O)cc(=O)o1` ?
7.00 to 8.00

---

Examples of molecules with documented EC50 follow.
system: SARS-CoV-2; experiment: Cytopathic effect (CPE) suppression effect confirmation test using HEK293T/ACE2-TMPRSS2 cells; type: cell-based; details: Severe acute respiratory syndrome coronavirus 2, HEK-293T, 72 h; HEK293T/ACE2-TMPRSS2 cells, CPE suppression, CellTiter-Glo 2.0 after 3 days culture; read-out: EC50 (50% SARS-CoV-2 infected cell death inhibitory concentration), class

Cc1cncc(-n2c(=O)c(Cc3cc(F)c(F)c(F)c3)c(N3CCCC3)n(CC#N)c2=O)c1 [Compound I-203]    < 100 nM
Cc1cc(-n2c(=O)c(-c3ccc(F)c(Cl)c3)c(N3CCC(C(F)(F)F)CC3)n(CC#N)c2=O)cc(=O)[nH]1 [Compound I-162]    100 to 1000 nM

What EC50 value was documented for this molecule, N#CCn1c(N2CC3(CCOC3)C2)c(Cc2cc(F)c(F)c(F)c2)c(=O)n(-c2cnc3ccccn23)c1=O [Compound I-037] ?
100 to 1000 nM

What EC50 value was documented for this molecule, Cc1cncc(-n2c(=O)c(Cc3cc(F)c(F)c(F)c3)c(-c3ccc(C)c(C)c3)n(C3(C#N)CC3)c2=O)c1 [Compound I-049] ?
100 to 1000 nM

What EC50 value was documented for this molecule, Cc1cncc(-n2c(=O)c(Cc3cc(F)c(F)c(F)c3)c(-c3cccc(C#N)c3)n(CC#N)c2=O)c1 [Compound I-012] ?
< 100 nM

What EC50 value was documented for this molecule, N#CCn1c(N2CCC(F)(F)CC2)c(-c2cccc(C#N)c2)c(=O)n(-c2cncc(Cl)c2)c1=O [Compound I-169] ?
< 100 nM

---

Examples of compounds with documented pIC50 follow.
molecular target: Recombinant SARS-CoV-2 3CL Protease (Severe acute respiratory syndrome coronavirus 2 (2019-nCoV) (SARS-CoV-2), UniProt P0DTD1); test: biochemical; assay type: biochemical; details: 50% SARS-CoV-2 3CL protease inhibitory concentration; read-out: IC50
pIC50: −log10 of the molar value.

Examples with their reported pIC50 follow.
Cc1cncc(-n2c(=O)c(Cc3cc(F)c(F)c(F)c3)c(Cl)n(C(C)C#N)c2=O)c1 (racemic)    < 7.00
N#CCn1c(N2CC3(CCOC3)C2)c(-c2ccc(F)c(Cl)c2)c(=O)n(-c2cnc3cc(Cl)ccn23)c1=O    > 8.00

What pIC50 value was documented for this compound, `N#CCn1c(N2CC3(CCOC3)C2)c(-c2ccc(F)c(Cl)c2)c(=O)n(-c2cncc(Cl)c2)c1=O` ?
> 8.00

---

test system: SARS-CoV-2; assay: Cytopathic effect (CPE) suppression effect confirmation test using HEK293T/ACE2-TMPRSS2 cells; format: cell-based; conditions: Severe acute respiratory syndrome coronavirus 2, HEK-293T, 72 h, read-out: EC50 (50% SARS-CoV-2 infected cell death inhibitory concentration), class, HEK293T/ACE2-TMPRSS2 cells, CPE suppression, CellTiter-Glo 2.0 after 3 days culture
RECORDED_METRIC: EC50

Examples with their reported EC50 follow.
Cc1cncc(-n2c(=O)c(Cc3cc(F)c(F)c(F)c3)c(N3CCC4(CC3)CNC(=O)O4)n(CC#N)c2=O)c1    100 to 1000 nM
Cc1cncc(-n2c(=O)c(Cc3cc(F)c(F)c(F)c3)c(N3CCC(C(F)(F)F)CC3)n(CC#N)c2=O)c1    < 100 nM
N#CCn1c(N2CC3(CCOC3)C2)c(-c2ccc(F)c(Cl)c2)c(=O)n(-c2cncc(Cl)n2)c1=O    < 100 nM
N#CCn1c(N2CC3(CCOC3)C2)c(-c2ccc(F)c(Cl)c2)c(=O)n(-c2cnc3cc(F)ccn23)c1=O    < 100 nM

What EC50 value was documented for this molecule, `Cn1c(-n2c(=O)c(Cc3cc(F)c(F)c(F)c3)c(N3Cc4ccccc4C3)n(CC#N)c2=O)cc(=O)n1C` ?
1000 to 5000 nM

What EC50 value was documented for this molecule, `Cc1cncc(-n2c(=O)c(-c3ccc(F)c(Cl)c3)c(N(C)Cc3ccccc3)n(CC#N)c2=O)c1` ?
< 100 nM

What EC50 value was documented for this molecule, `Cc1cncc(-n2c(=O)c(Cc3cc(F)c(F)c(F)c3)c(N3CCN(C)C(=O)C3)n(CC#N)c2=O)c1` ?
< 100 nM

What EC50 value was documented for this molecule, N#CCn1c(N2CCC3(CCC(=O)N3)C2)c(-c2ccc(F)c(Cl)c2)c(=O)n(-c2cncc(Cl)c2)c1=O (racemic) ?
100 to 1000 nM
